Each entry below carries its recorded pKi.
study-target: 5-hydroxytryptamine receptor 1A (Homo sapiens, UniProt P08908)
Sequence (P08908 whole entry): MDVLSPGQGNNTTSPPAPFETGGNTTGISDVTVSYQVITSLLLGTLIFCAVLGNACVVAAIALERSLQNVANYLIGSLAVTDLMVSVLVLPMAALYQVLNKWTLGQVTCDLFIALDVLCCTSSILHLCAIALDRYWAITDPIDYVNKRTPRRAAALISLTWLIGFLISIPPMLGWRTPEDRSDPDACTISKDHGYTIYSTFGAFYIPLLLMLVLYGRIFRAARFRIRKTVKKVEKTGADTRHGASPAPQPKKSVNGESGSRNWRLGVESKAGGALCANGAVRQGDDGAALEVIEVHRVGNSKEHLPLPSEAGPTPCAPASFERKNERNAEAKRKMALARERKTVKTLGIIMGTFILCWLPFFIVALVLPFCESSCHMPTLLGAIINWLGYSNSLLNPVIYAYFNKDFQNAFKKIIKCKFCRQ
test-details: Binding affinity to human 5HT1A receptor
// pKi here means minus log10 of the molar concentration (mol/L)

>>> measurement("C[C@@H]1NC(N)=Nc2cccc(Cl)c21")
7.02

// switching to the query molecule
Please give measured pKi of the following entry: `C[C@@H]1NC(NCC(F)F)=Nc2cccc(Cl)c21`
7.25

====

test-details: Cmax in mouse at 10 mg/kg, po
Format: ADME, organism-based
Parameters: dose 10 mg/kg, route oral
settings: in vivo
recorded-endpoint: Cmax (ng/mL)
Record the value in ng/mL, omitting the unit from your answer.

Please give measured Cmax of the following entry: CC1NC(N)=Nc2cccc(Cl)c21 (stereo unspecified)
660

====

Each entry below carries its recorded clearance.
test-details: Clearance in mouse at 5 mg/kg, iv
Format: ADME, organism-based
Design: dose 5 mg/kg, route intravenous
settings: in vivo
Record the value in mL/min/kg, omitting the unit from your answer.

>>> measurement("CC1NC(NCC(F)F)=Nc2cccc(Cl)c21 (configuration not stated)")
31

// switching to the query compound
Please give measured clearance of the following entry: CC1NC(N)=Nc2cccc(Cl)c21 (configuration not stated)
30

====

study-target: UniProt P35367
Sequence (P35367 whole entry): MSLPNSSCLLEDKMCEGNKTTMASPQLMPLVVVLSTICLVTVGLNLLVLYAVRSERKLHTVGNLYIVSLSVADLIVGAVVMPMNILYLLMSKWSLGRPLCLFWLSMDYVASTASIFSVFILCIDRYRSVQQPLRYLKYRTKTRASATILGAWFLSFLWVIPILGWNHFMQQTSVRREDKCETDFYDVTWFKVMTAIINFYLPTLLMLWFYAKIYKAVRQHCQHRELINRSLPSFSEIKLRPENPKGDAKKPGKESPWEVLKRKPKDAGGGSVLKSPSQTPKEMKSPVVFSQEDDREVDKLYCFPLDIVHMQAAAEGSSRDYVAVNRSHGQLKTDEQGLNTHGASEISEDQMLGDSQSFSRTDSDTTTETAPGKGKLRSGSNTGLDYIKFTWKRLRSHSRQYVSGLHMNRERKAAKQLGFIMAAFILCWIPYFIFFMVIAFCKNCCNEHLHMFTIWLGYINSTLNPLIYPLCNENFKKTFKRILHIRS
recorded-endpoint: Ki

Please give measured Ki of the following entry: `C[C@@H]1NC(NCC(F)F)=Nc2ccc(Cl)c(Cl)c21`
2.6 nM

====

test-details: Distribution coefficient, log D of the compound
Type: physicochemical
settings: octanol/water
Each entry below carries its recorded logD.
Give your answer as a number; write no unit.

Some entries whose results are on file:
>>> measurement("COc1cccc2c1N=C(NCC(F)F)NC2C (centres undefined)")
-0.5
>>> measurement("CCNC1=Nc2ccccc2C(C)N1 (centres undefined)")
-0.9

Please give measured logD of the following entry: CCCCNC1=Nc2ccccc2C(C)N1 (centres undefined)
-0.3

Please give measured logD of the following entry: CC1NC(NC[C@H]2CCCO2)=Nc2ccccc21 (some centres undefined)
-0.6

Please give measured logD of the following entry: CCOCCCNC1=Nc2ccccc2C(C)N1 (centres undefined)
-0.3

Please give measured logD of the following entry: CC1NC(N)=Nc2ccccc21 (centres undefined)
-1.4

Please give measured logD of the following entry: CC1NC(NCC(F)F)=Nc2c(Cl)ccc(Cl)c21 (centres undefined)
3

Please give measured logD of the following entry: CC1NC(NCC(F)(F)F)=Nc2ccccc21 (centres undefined)
0.5

====

Target protein (sequence): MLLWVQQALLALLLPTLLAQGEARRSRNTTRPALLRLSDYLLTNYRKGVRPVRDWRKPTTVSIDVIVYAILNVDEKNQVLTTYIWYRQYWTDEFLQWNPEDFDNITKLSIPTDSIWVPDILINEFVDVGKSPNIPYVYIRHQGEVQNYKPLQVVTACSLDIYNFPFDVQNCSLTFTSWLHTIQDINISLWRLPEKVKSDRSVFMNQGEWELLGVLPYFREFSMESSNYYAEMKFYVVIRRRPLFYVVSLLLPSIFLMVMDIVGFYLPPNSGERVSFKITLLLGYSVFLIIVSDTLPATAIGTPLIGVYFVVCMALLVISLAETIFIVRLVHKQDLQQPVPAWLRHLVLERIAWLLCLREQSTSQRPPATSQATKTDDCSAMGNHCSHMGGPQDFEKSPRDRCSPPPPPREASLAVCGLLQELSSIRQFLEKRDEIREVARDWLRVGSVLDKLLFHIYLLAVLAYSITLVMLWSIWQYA
recorded-endpoint: Ki (µM)
Record the value in µM, omitting the unit from your answer.

Please give measured Ki of the following entry: `C[C@@H]1NC(N)=Nc2cccc(Cl)c21`
1.06
